B1: LINE1-full (parent)
chain: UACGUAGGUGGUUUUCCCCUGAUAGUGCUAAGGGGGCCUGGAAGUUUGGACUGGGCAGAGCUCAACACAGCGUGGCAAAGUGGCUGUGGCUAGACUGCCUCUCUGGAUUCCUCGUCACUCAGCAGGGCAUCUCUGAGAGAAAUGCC

Variants of: B1
Experiment: self-cleavage, relative activity (ratio to wild type); higher = more cleavage; in vitro, sequencing; the parent is a self-cleaving ribozyme
Answer Criterion not met if self-cleavage is under 1, and Criterion met if it is 1 or more.

Ask | Identify whether the reported self-cleavage of the following variant is 1 or greater: A65G U100G
Reply | Criterion not met

Ask | Moving on to the next variant: C18U A42C
Reply | Criterion not met

Ask | For A43U U134A then?
Reply | Criterion met

Ask | Repeat with A67G U108A
Reply | Criterion not met

Ask | What about C38A A141U ?
Reply | Criterion met

Ask | Can you handle U102C G144C next?
Reply | Criterion met

Data origin: the RNAGym collection of RNA variant scans (doi:10.7554/elife.90254)
